Test: Cytotoxicity against human LS180 cells assessed as cell viability at 30 uM after 24 hrs by MTT assay relative to control
Assay type: cell-based
Conditions: read-out: Activity
property: viability at 24 h, 30 µM

Check out these entries, answers already filled in.
| smiles str | viability at 24 h, 30 µM |
| --- | --- |
| CCOP(=O)(/C=C/c1ccc(Cl)cc1)OCC | 82% |
| CC(C)OP(=O)(OC(C)C)C(=Cc1cccc(Br)c1)P(=O)(OC(C)C)OC(C)C | 74% |

Give its viability at 24 h, 30 µM value. Item: `CCOP(=O)(OCC)C(=Cc1cc(OC)cc(OC)c1)P(=O)(OCC)OCC`
100%

Another: `CC(C)OP(=O)(OC(C)C)C(=Cc1ccccc1)P(=O)(OC(C)C)OC(C)C`
92%

Another: `CC(C)OP(=O)(OC(C)C)C(=Cc1cccc2ncccc12)P(=O)(OC(C)C)OC(C)C`
100%

Another: `COc1cc(C=C(P(=O)(OC(C)C)OC(C)C)P(=O)(OC(C)C)OC(C)C)cc(OC)c1`
100%

Another: `CCOP(=O)(OCC)C(=Cc1c2ccccc2cc2ccccc12)P(=O)(OCC)OCC`
100%

Another: `CCOP(=O)(OCC)C(=Cc1ccccc1)P(=O)(OCC)OCC`
100%

Another: `CCOP(=O)(OCC)C(=Cc1ccccc1[N+](=O)[O-])P(=O)(OCC)OCC`
100%

Another: `CCOP(=O)(OCC)C(=Cc1ccc([N+](=O)[O-])o1)P(=O)(OCC)OCC`
92%

Another: `CC(C)OP(=O)(OC(C)C)C(=Cc1ccc(N(C)C)cc1)P(=O)(OC(C)C)OC(C)C`
100%

Another: `COc1cc(OC)c(OC)cc1C=C(P(=O)(OC(C)C)OC(C)C)P(=O)(OC(C)C)OC(C)C`
100%

Another: `CC(C)OP(=O)(OC(C)C)C(=Cc1cccc2ccccc12)P(=O)(OC(C)C)OC(C)C`
100%

* * *

Target: Nuclear receptor subfamily 1 group I member 2 (Homo sapiens, UniProt O75469)
Sequence (O75469 whole entry): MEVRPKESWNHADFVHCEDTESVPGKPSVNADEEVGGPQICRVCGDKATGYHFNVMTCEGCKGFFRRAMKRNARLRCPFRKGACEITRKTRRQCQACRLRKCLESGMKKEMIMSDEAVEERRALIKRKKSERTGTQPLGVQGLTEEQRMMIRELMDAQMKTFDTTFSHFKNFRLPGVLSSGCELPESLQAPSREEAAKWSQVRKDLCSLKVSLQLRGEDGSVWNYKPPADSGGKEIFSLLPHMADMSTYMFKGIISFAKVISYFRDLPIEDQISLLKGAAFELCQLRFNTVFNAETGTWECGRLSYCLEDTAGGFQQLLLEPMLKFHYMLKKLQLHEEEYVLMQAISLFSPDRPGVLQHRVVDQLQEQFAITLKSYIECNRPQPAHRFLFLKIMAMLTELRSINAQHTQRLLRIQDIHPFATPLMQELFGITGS
Assay: Activation of PXR in human LS180 cells assessed as P-gp induction by measuring intracellular accumulation of rhodamine 123 per ug of total protein at 5 uM preincubated for 48 hrs followed by rhodamine 123 addition after 40 mins and measured after 90 mins by fluorescence assay relative to control
Type: cell-based
Details: 1.5 h
property: Activity
Please state the number and follow it with the unit.

Check out these entries, answers already filled in.
| smiles str | result |
| --- | --- |
| CCOP(=O)(/C=C/c1ccc(OC)c(Br)c1)OCC | 70.49% |
| CCOP(=O)(OCC)C(=Cc1ccccc1)P(=O)(OCC)OCC | 58.09% |

Switching to the query record.
What is its Activity for Nuclear receptor subfamily 1 group I member 2 (Homo sapiens, UniProt O75469)? Entry: `COc1cc(OC)c(OC)cc1C=C(P(=O)(OC(C)C)OC(C)C)P(=O)(OC(C)C)OC(C)C`
64.07%
